ASSAYED_TARGET: T1, TDRD7 L3 (Mus musculus, UniProt Q8K1H1 325-394)
T1 sequence: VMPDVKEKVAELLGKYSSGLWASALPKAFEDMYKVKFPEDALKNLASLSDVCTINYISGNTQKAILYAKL
ASSAY_SUMMARY: ELISA
RESULT_TYPE: binding result

BINDER | RESULT
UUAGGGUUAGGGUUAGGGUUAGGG (structured_RNA) [TERRA G4 RNA] | binds
GGUCCGCAGCCGAGUCCGGGUCCG (ssRNA) [Cluster G4-1 mut RNA] | no binding
UUACCGUUACCGUUACCGUUACCG (ssRNA) [TERRA G4 mut RNA] | no binding
GGUGGGCAGGGGAGUGGGGGUGGG (structured_RNA) [Cluster G4-1 RNA] | binds
